// provenance: patent US20150297761A1

Assay: Relaxivity in the absence and presence of HSA (Example 3)
Assay type: physicochemical
Settings: 60 MHz; presence of HSA (second value of cell)
MEASURED ATTRIBUTE: r1 (60 MHz), presence of HSA (mM⁻¹ s⁻¹)
Express it in mM⁻¹ s⁻¹; write the number only.

Before answering, review these 3 worked examples.
{"columns": ["COMPOUND", "MEASURED RESULT"],
 "data": [
  ["C[C@@H](C(=O)NC(CN1CCN(CC(=O)O)CCN(CC(=O)O)CCN(CC(=O)O)CC1)C(=O)N[C@@H](Cc1cc(I)c(O)c(I)c1)C(=O)O)c1ccccc1 (stereo partly shown) [Gd (19)]", 21.8],
  ["C[C@@H](NC(=O)C(CN1CCN(CC(=O)O)CCN(CC(=O)O)CCN(CC(=O)O)CC1)NC(=O)C(N)Cc1cc(I)c(O)c(I)c1)c1ccccc1 (stereo partly shown) [Gd (13-S)]", 10.9],
  ["C[C@@H](NC(=O)C(CN1CCN(CC(=O)O)CCN(CC(=O)O)CCN(CC(=O)O)CC1)NC(=O)C(N)Cc1cc(I)c(O)c(I)c1)c1ccccc1 (stereo partly shown) [Gd (13-R)]", 11.4]
]}

With those in mind, consider the next compound.
For this compound ( COC(=O)CNC(=O)C(CN1CCN(CC(=O)O)CCN(CC(=O)O)CCN(CC(=O)O)CC1)NC(=O)C(N)Cc1cc(I)c(O)c(I)c1 (stereo not shown) [Gd (7)] ), measured r1 (60 MHz), presence of HSA is 6.9
